# systemTested: Lysosomal acid glucosylceramidase (Homo sapiens)
# experimentalProtocol: qHTS Assay for Inhibitors and Activators of N370S glucocerebrosidase as a Potential Chaperone Treatment of Gaucher Disease: Purified Non-mutant Confirmation for Probe SAR
# studyConditions: purified GC, 4MU-beta-glucoside fluorescence, 40 min; series mostly up to 57.5 µM
# Protocol: NIH Chemical Genomics Center [NCGC] NIH Molecular Libraries Probe Production Centers Network [MLPCN] […] NCGC Assay Protocol Summary: This is a fluorogenic enzyme assay with 4-methylumbelliferyl-beta-D-glucopyranoside as the substrate and purified wildtype glucocerebrosidase as the enzyme preparation. […] The AC50 values were determined from concentration-response data modeled with the standard Hill equation. […]
Records with an inconclusive call do not appear. Activity calls are given as the source filed them. Calls come from the whole dose curve; as a rule, active = well fitted activation curve with a large enough effect; inconclusive = small, poorly fitted or top-dose-only effect; inactive = flat fitted curve, though single readings scatter.
measuredAttribute: Potency

Some compounds with recorded Potency:
chemSmiles	systemTested	Potency
Cc1cc(C)n2ncc(C(=O)Nc3ccc(S(C)(=O)=O)cc3)c2n1	Lysosomal acid glucosylceramidase (Homo sapiens)	inactive
O=C(Nc1ccccc1Sc1ccccc1)c1cnn2c1NC(=C1CC1)C=C2C(F)F	Lysosomal acid glucosylceramidase (Homo sapiens)	32.6 µM (active)
Cc1cc(C)n2ncc(C(=O)NC(C)C)c2n1	Lysosomal acid glucosylceramidase (Homo sapiens)	41.1 µM (active)
Cc1cccc(NC(=O)c2cnn3c(C)cc(C)nc23)c1	Lysosomal acid glucosylceramidase (Homo sapiens)	16.3 µM (active)
Cc1cc(C)n2ncc(C(=O)NCc3ccco3)c2n1	Lysosomal acid glucosylceramidase (Homo sapiens)	23.1 µM (active)
Cc1cc(C)n2ncc(C(=O)Nc3ccc(Br)cc3)c2n1	Lysosomal acid glucosylceramidase (Homo sapiens)	16.3 µM (active)

API: the following record is the query input.
Qu. State its Potency: `Cc1ccc(NC(=O)c2cnn3c(C)cc(C)nc23)c(C)c1`
Ans. 20.6 µM (active)
